Data credit: PubChem BioAssay AID1578

Answer each item with its documented inhibition.
# ASSAY_REMARKS: NOD1 signaling inhibitors, primary screen, cell-based, luminescence, uHTS (AID 1578);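 further: HEK-293T reporter cells stimulated with the NOD1 agonist gamma-tri-DAP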
# CONDITION_DESCRIPTION: NOD1-driven NF-kB luciferase reporter cells, at 4 µM, active compounds read high
About 3,000 (1%) of roughly 290,000 compounds were called active. This is one part of a sample in which actives are shown more often than they occur.
Numbers only, in %.

Answered cases to consult:
| ENTRY_SMILES | NUMBER |
| --- | --- |
| COC(=O)c1cc(=O)n(Cc2ccc3c(c2)OCO3)c(=Nc2ccc(F)cc2)s1 | 48.7 |
| C=CCOc1ccc2ccccc2c1/C=N/O | -6.7 |
| C=CCNC(=O)c1ccccc1NC(=O)COc1ccccc1 | 27.8 |

Provide inhibition for all items below, preserving their order.
1. COc1ccc(N2CCN(C(=O)CSc3nc4[nH]ncc4c(=O)n3-c3ccc(Br)cc3)CC2)cc1
2. N#C/C=C1\n2c(nc3ccccc32)OC12CCCCC2
3. CNc1nc2ccccc2n1N

### Response
1: 8.7; 2: -4; 3: 47

----------
# ASSAY_REMARKS: NOD1 signaling inhibitors, primary screen, cell-based, luminescence, uHTS (AID 1578);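 further: HEK-293T reporter cells stimulated with the NOD1 agonist gamma-tri-DAP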
# CONDITION_DESCRIPTION: NOD1-driven NF-kB luciferase reporter cells, at 4 µM, active compounds read high
The whole screen tested about 290,000 compounds, of which about 3,000 (1%) were called active. What follows is part of a selection rich in actives, with near analogues and random picks from the rest.
Field: inhibition. Provide a value for each of the compounds that follow.
Numbers only, in %.

The examples below pair each entry with its known result.
| COMPOUND | NUMBER |
| --- | --- |
| COc1ccc(CCNC(=O)CCC(=O)N2CCOc3ccc(C)cc32)cc1OC | 10.2 |
| O=C(O)C1CCCN(S(=O)(=O)c2ccc(Cl)s2)C1 (stereo unspecified) | -19.7 |
| O=C(CSc1nnnn1-c1ccccc1)Nc1ncc(Cc2cccc(Cl)c2Cl)s1 | -16.9 |

Please report inhibition for every entry that follows.
1. Cn1ncnc1SCc1cn2cccnc2n1
2. N#C/C(=C\c1ccc(OCc2ccccc2)cc1)C(=O)Nc1nc2c(s1)CCN(Cc1ccccc1)C2
3. CCCCCC1=NN2C(=O)CC(=O)N=C2S1
4. CCc1ccc(NC(=O)CCCN2C(=S)NC(C)(C)CC2C)cc1 (stereo unspecified)
5. CCc1ccc(CNC(=O)c2ccc(NC(=O)C3=CSCCO3)cc2)cc1
6. CC(C)C(=O)Nc1ccc(Cl)cc1-c1nc2ccccc2[nH]c1=O
7. COC(=O)c1ccccc1NC(=O)C(C)n1nc(C)c2c(C)n(-c3ccccc3)nc2c1=O (stereo unspecified)
8. COc1cccc(C2C(C#N)=C(N)Oc3cc(C)n(Cc4ccccn4)c(=O)c32)c1OC (stereo unspecified)

### Response
1: -16.1; 2: -24.8; 3: 11.6; 4: -30.4; 5: -44.5; 6: 34.6; 7: 7.4; 8: -19.6

----------
For each entry below, report its inhibition value.
# ASSAY_REMARKS: NOD1 signaling inhibitors, primary screen, cell-based, luminescence, uHTS (AID 1578);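 further: HEK-293T reporter cells stimulated with the NOD1 agonist gamma-tri-DAP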
# CONDITION_DESCRIPTION: NOD1-driven NF-kB luciferase reporter cells, at 4 µM, active compounds read high
About 3,000 (1%) of roughly 290,000 compounds were called active. This is one part of a sample in which actives are shown more often than they occur.

Items follow; give inhibition for each.
1. CC(=O)Nc1ccc(NC(=O)CCOc2cc(C)ccc2C)cc1
2. CC(C)(C)n1cnc2cc(NS(=O)(=O)c3ccc(Br)cc3)ccc21

### Response
46.4% (inactive)
7.7% (inactive)

List the reported inhibition of each compound below.
1. Cc1cc(=O)oc2cc(OCC(=O)NC(Cc3c[nH]c4ccc(O)cc34)C(=O)O)c(Cl)cc12 (stereo not given)
2. Cc1ccc(C(=O)OC/C(O)=C(\C#N)c2nc3ccccc3[nH]2)cc1S(=O)(=O)N1CCOCC1
3. CCOCc1c(C(=O)NC2=Nc3ccccc3NC(CC)=C2C(=O)OCC)oc2ccccc12
4. O=C(OCC(=O)c1cccs1)c1ccccc1

### Response
["-16.2% (inactive)", "20.1% (inactive)", "4.5% (inactive)", "2.3% (inactive)"]

Please state, for each entry, its recorded inhibition.
1. Nc1nonc1-n1nnc(C(=O)N/N=C/c2ccccc2)c1CN1CCc2ccccc21
2. O=C(Cc1c[nH]c2ccccc12)Nc1ccc(N2CCOCC2)cc1
3. Cc1ccc2c(Cl)cc(Cl)c(OCC(=O)N(C(C)C)C(C)C)c2n1

### Response
-21.6% (inactive)
-30.3% (inactive)
-3.8% (inactive)

Sample Cc1ccc2c(Cl)cc(Cl)c(OCC(=O)NC(=O)NCc3ccco3)c2n1 ; inhibition observed: -16.8% (inactive)
